This collection of values is drawn from patent US20120094909A1.

- test.system: T1, human PCSK9 (proprotein convertase subtilisin kexin type 9) (human, UniProt Q8NBP7 31-692)
- T1 construct: Directly immobilized (SPR ProteOn), biotinylated (BLI), or in solution, depending on the assay; also called hPCSK9
- assay.procedure: FRET, competitor EGFA peptide
Entries and their IC50
Numbers only here, please. The scale is nM.

Sample records with IC50:
>  <binder>
1922G04 (designed binder, Anti-PCSK9 Adnectin, His6-tagged; also called ATI001057; ATI-1057) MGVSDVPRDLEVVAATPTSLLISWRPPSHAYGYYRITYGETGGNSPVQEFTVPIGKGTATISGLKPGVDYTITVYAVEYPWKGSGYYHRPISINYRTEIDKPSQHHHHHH

>  <u>
nM

>  <IC50>
1.2

$$$$
>  <binder>
2382C09 (designed binder, Anti-PCSK9 Adnectin, His6-tagged) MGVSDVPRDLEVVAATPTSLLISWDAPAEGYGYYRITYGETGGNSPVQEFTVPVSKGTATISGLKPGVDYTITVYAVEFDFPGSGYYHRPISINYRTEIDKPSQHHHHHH

>  <u>
nM

>  <IC50>
3.5

$$$$
>  <binder>
2381D04 (designed binder, Anti-PCSK9 Adnectin, His6-tagged) MGVSDVPRDLEVVAATPTSLLISWEPFSRLPGGGEYYRITYGETGGNSPLQQFTVPGSKGTATISGLKPGVDYTITVYAVEFPYDHSGYYHRPISINYRTEIDKPSQHHHHHH

>  <u>
nM

>  <IC50>
2.9

$$$$
>  <binder>
2381F11 (designed binder, Anti-PCSK9 Adnectin, His6-tagged) MGVSDVPRDLEVVAATPTSLLISWDAPADGGYGYYRITYGETGGNSPVQEFTVPVSKSTATISGLKPGVDYTITVYAVEYTFPGAGYYHRPISINYRTEIDKPSQHHHHHH

>  <u>
nM

>  <IC50>
4

$$$$
>  <binder>
2381B04 (designed binder, Anti-PCSK9 Adnectin, His6-tagged) MGVSDVPRDLEVVAATPTSLLISWEPFSRLPGGGEYYRITYGETGGNSPLQQFTVPGSKGTATISGLKPGVDYTITVYAVEYPYEHSGYYHRPISINYRTEIDKPSQHHHHHH

>  <u>
nM

>  <IC50>
2.4

$$$$
>  <binder>
2382C05 (designed binder, Anti-PCSK9 Adnectin, His6-tagged) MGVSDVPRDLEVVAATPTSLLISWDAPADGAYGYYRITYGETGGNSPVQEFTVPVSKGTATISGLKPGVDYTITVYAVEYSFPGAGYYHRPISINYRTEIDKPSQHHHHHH

>  <u>
nM

>  <IC50>
4

$$$$
>  <binder>
2382D09 (designed binder, Anti-PCSK9 Adnectin, His6-tagged) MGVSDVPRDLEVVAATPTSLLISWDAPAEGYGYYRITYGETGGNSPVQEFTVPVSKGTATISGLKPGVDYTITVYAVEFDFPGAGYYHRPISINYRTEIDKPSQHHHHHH

>  <u>
nM

>  <IC50>
2.6

$$$$
>  <binder>
1923B02 (designed binder, Anti-PCSK9 Adnectin, His6-tagged) MGVSDVPRDLEVVAATPTSLLISWTPPPKGYGYYRITYGETGGNSPVQEFTVPVGEGTATISGLKPGVDYTITVYAVEYTYNGAGYYHRPISINYRTEIDKPSQHHHHHH

>  <u>
nM

>  <IC50>
2.3

$$$$

Return IC50 for the following binder: 2012A04 (designed binder, Anti-PCSK9 Adnectin, His6-tagged) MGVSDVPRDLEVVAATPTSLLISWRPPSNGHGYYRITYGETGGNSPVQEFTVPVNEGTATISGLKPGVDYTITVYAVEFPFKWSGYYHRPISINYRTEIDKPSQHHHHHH
2.1

Return IC50 for the following binder: 2451C06 (designed binder, Anti-PCSK9 Adnectin, His6-tagged) MGVSDVPRDLEVVAATPTSLLISWDAPAGAASYGYYRITYGETGGNSPVQEFTVPVSKGTATISGLKPGVDYTITVYAVEFPFPGAGYYHRPISINYRTEIDKPSQHHHHHH
1.2

Return IC50 for the following binder: 2013E01 (designed binder, Anti-PCSK9 Adnectin, His6-tagged, unmodified (not PEGylated); also called ATI001081) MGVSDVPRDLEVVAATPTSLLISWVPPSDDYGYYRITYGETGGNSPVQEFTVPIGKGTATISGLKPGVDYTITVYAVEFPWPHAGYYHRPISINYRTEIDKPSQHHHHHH
1.6
